Kindly state drug sensitivity score for each of the entries shown.
test system: HepG2; assay: drug sensitivity score (DSS) for viability; higher = more toxic; extreme values may be limits of the assay; conditions: 72 h
Keep it simple and answer with nothing but the number.

Input: Lab note: HepG2 assay, enter drug sensitivity score for O=C(O)CCCN1C(=O)c2cccc3cccc(c23)C1=O here
Output: 0

Input: State the measured drug sensitivity score (HepG2) of CC(=O)NCCNc1cc(Cl)nn2c(-c3cccc(S(=O)(=O)N(C)C)c3)c(C)nc12
Output: 4.4

Input: Give HepG2 drug sensitivity score for the following molecule: CC(C)[C@H](C(=O)Nc1ccc(C(=O)NO)cc1)c1ccccc1
Output: 18

Input: Name the value of drug sensitivity score reported for O=P(O)(NCCCl)NCCCl [palifosfamide] when tested on HepG2.
Output: 0

Input: Provide the reported drug sensitivity score (system: HepG2) for CC(=O)Oc1cccc(C(=O)O)c1OC(C)=O
Output: 0

Input: Fetch value of drug sensitivity score on HepG2 for NCC1(CC(=O)O)CCCCC1 .
Output: 0

Input: Quote drug sensitivity score with test system HepG2 for O=C(Nc1cccc2cccnc12)c1ccc(N2C(=O)[C@@H]3[C@H](C2=O)[C@@H]2C=C[C@H]3C2)cc1 [endo-IWR-1]
Output: 0

Input: Please tell me the measured drug sensitivity score for CC(=O)Oc1ccccc1C(=O)Oc1ccccc1C(=O)O ; system: HepG2.
Output: 0

Input: Using HepG2 as the test system, report measured drug sensitivity score of Sc1nc2ccccc2s1 [benzo[d]thiazole-2(3H)-thione] .
Output: 0

Input: Give HepG2 drug sensitivity score for the following molecule: CC(=O)OC[C@H](N)C(=O)O
Output: 0

Input: Provide drug sensitivity score, recorded with HepG2, of CC(C)C(N)=O [isobutyramide]
Output: 0

Input: Quote drug sensitivity score with test system HepG2 for CC1=C(/C=C/C(C)=C/C=C/C(C)=C/C(=O)Nc2ccc(O)cc2)C(C)(C)CCC1 [fenretinide]
Output: 1.2

Input: Please indicate recorded drug sensitivity score of Clc1cccc(-n2nnnc2NCc2ccccc2Oc2ccccn2)c1Cl measured with HepG2.
Output: 0

Input: // output drug sensitivity score; input O=S1(=O)c2cccc3cccc(c23)N1CCCN1CCN(c2ccc(F)cc2)CC1 ; system HepG2
Output: 0

Input: Name the value of drug sensitivity score reported for COc1ccc(CCC(=O)c2c(O)cc(O[C@@H]3O[C@H](CO)[C@@H](O)[C@H](O)[C@H]3O[C@@H]3O[C@@H](C)[C@H](O)[C@@H](O)[C@H]3O)cc2O)cc1O [Neohesperidin dihydrochalcone (Nhdc)] when tested on HepG2.
Output: 0

Input: Print HepG2 drug sensitivity score for COc1cc([C@@H]2c3cc4c(cc3[C@@H](O[C@@H]3O[C@@H]5CO[C@@H](C)O[C@H]5[C@H](O)[C@H]3O)[C@H]3COC(=O)[C@H]23)OCO4)cc(OC)c1O [etoposide] .
Output: 7.2

Input: Write drug sensitivity score of CCn1cc(C(=O)O)c(=O)c2ccc(C)nc21 ; system used: HepG2
Output: 0

Input: Print HepG2 drug sensitivity score for CC(C)NCC(O)c1ccc([N+](=O)[O-])cc1 (stereo not drawn) .
Output: 0
